Let's look at some binders and their measured IL-9 secretion, CD8 T cells, at 0.0001 µM.
TARGET: T1, IL10Rα/IL2Rγ receptor (human) (UniProt Q13651)
T1 sequence (looked up) 1: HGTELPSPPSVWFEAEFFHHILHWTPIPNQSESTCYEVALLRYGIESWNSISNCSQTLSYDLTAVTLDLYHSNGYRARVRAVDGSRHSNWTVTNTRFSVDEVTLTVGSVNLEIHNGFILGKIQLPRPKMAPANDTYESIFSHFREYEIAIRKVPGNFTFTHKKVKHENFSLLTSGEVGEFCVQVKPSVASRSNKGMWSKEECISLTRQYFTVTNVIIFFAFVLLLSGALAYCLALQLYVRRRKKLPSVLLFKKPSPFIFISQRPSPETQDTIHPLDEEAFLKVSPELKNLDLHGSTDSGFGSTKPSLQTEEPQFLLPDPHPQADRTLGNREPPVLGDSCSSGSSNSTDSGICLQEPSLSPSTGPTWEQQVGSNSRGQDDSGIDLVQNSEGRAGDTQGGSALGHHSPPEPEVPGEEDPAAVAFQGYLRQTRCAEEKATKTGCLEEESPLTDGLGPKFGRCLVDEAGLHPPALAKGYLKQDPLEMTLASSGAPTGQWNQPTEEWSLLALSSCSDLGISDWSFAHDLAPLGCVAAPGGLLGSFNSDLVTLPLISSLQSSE
T1 sequence (looked up) 2: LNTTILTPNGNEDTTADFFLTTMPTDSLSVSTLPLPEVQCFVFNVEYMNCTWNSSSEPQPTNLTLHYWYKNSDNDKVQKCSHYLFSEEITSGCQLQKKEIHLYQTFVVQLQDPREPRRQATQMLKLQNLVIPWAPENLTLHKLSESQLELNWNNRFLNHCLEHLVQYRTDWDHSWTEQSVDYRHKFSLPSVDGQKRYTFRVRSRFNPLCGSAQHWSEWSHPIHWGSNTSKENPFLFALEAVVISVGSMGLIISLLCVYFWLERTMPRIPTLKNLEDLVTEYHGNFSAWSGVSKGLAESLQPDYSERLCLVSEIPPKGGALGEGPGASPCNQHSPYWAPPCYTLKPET
PROTOCOL: cell-based or functional assay
Note: state the figure and append the unit.

hIL10Ra_VHH14 - hIL2Rg_VHH19, linker GGGS, tag his (bispecific antibody, not shown: small tags and cut ends) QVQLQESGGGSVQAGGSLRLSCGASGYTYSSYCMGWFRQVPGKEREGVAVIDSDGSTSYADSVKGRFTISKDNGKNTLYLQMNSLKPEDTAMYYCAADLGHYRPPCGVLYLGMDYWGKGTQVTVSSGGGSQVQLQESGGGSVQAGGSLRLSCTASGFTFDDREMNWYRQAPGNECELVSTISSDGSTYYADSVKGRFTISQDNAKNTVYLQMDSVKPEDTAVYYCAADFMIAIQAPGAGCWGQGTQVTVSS
941 pg/mL
hIL10Ra_VHH14 - hIL2Rg_VHH19, linker GGGS, tag Fc (bispecific antibody, not shown: a dimerising Fc or GST) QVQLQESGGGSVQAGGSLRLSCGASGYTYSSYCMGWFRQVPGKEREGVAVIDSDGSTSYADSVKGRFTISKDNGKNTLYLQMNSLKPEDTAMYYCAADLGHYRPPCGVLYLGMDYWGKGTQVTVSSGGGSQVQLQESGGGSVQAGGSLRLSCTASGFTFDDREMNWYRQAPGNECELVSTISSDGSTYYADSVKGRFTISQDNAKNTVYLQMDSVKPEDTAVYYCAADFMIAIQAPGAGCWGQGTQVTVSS
1060 pg/mL

Next item in the queue.
stdin: Find the recorded IL-9 secretion, CD8 T cells, at 0.0001 µM belonging to hIL10Ra_VHH14 - hIL2Rg_VHH19, linker GGSGGS, tag his (bispecific antibody, not shown: small tags and cut ends) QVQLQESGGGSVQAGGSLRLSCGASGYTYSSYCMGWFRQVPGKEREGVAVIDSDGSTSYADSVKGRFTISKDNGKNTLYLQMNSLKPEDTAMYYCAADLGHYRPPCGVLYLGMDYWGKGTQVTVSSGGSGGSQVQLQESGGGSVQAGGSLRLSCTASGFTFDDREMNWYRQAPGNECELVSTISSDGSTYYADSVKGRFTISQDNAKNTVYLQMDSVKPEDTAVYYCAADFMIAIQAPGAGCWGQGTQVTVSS and report it.
stdout: 951 pg/mL
